Values from patent US10233186B2

A collection of compounds and their measured pIC50
Target: human ALK2 R206H (Homo sapiens, UniProt Q04771, R206H)
Construct: expressed in transfected cells; host or cells: HEK293 (ATCC CRL1573), lentivirus transduction, blasticidin selection
Test: Cell-based ALK2-R206H cell activity assay (Smad1-Ser463/Ser465 phosphorylation by AlphaLISA in HEK293-ALK2-R206H cells)
Settings: read-out: Cell Line (Cell Assay IC50)
pIC50: −log10 of the molar value.

Reference set, count: 6
Using the record for CC(C)N1CCN(C)[C@H](c2ccc(-c3cc4c(N5CCN(C(=O)C6CC6)CC5)ccnn4c3)cc2)C1 , report its pIC50. > 7.00

Using the record for O=C(OC1COC1)N1CCN(c2ccnn3cc(-c4ccc([C@@H]5CCCNC5)cc4)cc23)CC1 , report its pIC50. > 7.00

Using the record for CCN1CCN(c2ccc(-c3cc4c(N5CCN(C(=O)[C@H]6C[C@@H](O)C6)CC5)ccnn4c3)cc2)CC1 , report its pIC50. < 6.30

Using the record for O=C(C1CC1)N1CCN(c2ccnn3cc(-c4ccc(C5CCN(C6COC6)CC5)cc4)cc23)CC1 , report its pIC50. 6.30 to 7.00

Using the record for COC[C@@H](C)N1CCC(OC)(c2ccc(-c3cc4c(N5CCN(C(=O)NC(C)C)CC5)ccnn4c3)nc2)CC1 , report its pIC50. > 7.00

Using the record for O=C(C1CC1)N1CCN(c2ccnn3cc(-c4ccc(OC5CCNCC5)cc4)cc23)CC1 , report its pIC50. 6.30 to 7.00

Continue with the next compound.
Using the record for COC1(c2ccc(-c3cc4c(N5CCN(C(=O)C6CC6)CC5)ccnn4c3)nc2)CCN([C@H](C)COC(F)F)CC1 , report its pIC50. > 7.00

* * *

Target: ALK2 R206H (GST-tagged mutant ALK2) (Homo sapiens, UniProt Q04771, R206H)
Construct: purchased Carna Bioscience or ThermoFisher 09-148 or PV6232
Sequence (Q04771 21-509 R206H): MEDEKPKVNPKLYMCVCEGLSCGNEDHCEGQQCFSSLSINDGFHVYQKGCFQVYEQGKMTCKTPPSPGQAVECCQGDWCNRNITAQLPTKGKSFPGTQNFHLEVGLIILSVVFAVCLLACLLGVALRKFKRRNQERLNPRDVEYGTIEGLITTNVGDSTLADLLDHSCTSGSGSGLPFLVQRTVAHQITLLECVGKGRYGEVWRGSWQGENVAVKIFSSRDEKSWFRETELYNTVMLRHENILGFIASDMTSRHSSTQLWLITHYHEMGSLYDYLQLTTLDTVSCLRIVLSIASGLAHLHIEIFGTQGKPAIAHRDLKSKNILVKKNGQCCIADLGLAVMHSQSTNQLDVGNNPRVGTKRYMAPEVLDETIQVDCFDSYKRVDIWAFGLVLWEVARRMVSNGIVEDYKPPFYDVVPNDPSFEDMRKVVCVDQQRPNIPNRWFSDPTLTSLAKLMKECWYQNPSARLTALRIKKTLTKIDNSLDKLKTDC
Experiment: ALK binding assay (LANTHASCREEN TR-FRET competitive binding, displacement of Kinase Tracer 178)
Settings: ALK2 R206H, LANTHASCREEN TR-FRET competitive binding; read-out: Binding Assay (IC50)
experimental_endpoint: IC50

Using the record for CCN1CCN(c2ccc(-c3cc4c(N5CCN(C(=O)C(C)C)CC5)ccnn4c3)cc2)CC1 , report its IC50. 10 to 50 nM

Continuing:
Using the record for CC(C)N1CCC[C@@H](c2ccc(-c3cc4c(N5CCN(C(=O)OC6COC6)CC5)ccnn4c3)nc2)C1 , report its IC50. < 10 nM

Using the record for CO[C@@]1(c2ccc(-c3cc4c(N5CCN(C(=O)OC6COC6)CC5)ccnn4c3)nc2)CCCNC1 , report its IC50. < 10 nM

Using the record for CCOC1(c2ccc(-c3cc4c(N5CCN(C(=O)C6CC6)CC5)ccnn4c3)cc2)CCN(C(C)C)CC1 , report its IC50. < 10 nM

Using the record for CCNC(=O)N1CCN(c2ccnn3cc(-c4ccc([C@@]5(OC)CCCN(C(C)C)C5)c(F)c4)cc23)CC1 , report its IC50. < 10 nM

Using the record for CCNC(=O)N1CCN(c2ccnn3cc(-c4cnc(N5CCN(C(C)C)CC5)cn4)cc23)CC1 , report its IC50. < 10 nM

Using the record for CC(C)N1CCC(COC(F)F)(c2ccc(-c3cc4c(N5CCN(C(=O)C6CC6)CC5)ccnn4c3)cc2)CC1 , report its IC50. < 10 nM

Using the record for CCN1CCN(c2cc(F)c(-c3cc4c(N5CCN(C(=O)C6CC6)CC5)ccnn4c3)c(F)c2)CC1 , report its IC50. 10 to 50 nM

* * *

A collection of molecules and their measured pIC50
Molecular target: ALK2 R206H (GST-tagged mutant ALK2) (Homo sapiens, UniProt Q04771, R206H)
Construct: purchased Carna Bioscience or ThermoFisher 09-148 or PV6232
Assay: ALK binding assay (LANTHASCREEN TR-FRET competitive binding, displacement of Kinase Tracer 178)
Conditions: ALK2 R206H, LANTHASCREEN TR-FRET competitive binding; read-out: Binding Assay (IC50)
pIC50: −log10 of the molar value.

# get_value(readout= pIC50, system= ALK2 R206H (GST-tagged mutant ALK2) (Homo sapiens, UniProt Q04771, R206H)) for CC(C)NC(C)(CO)c1ccc(-c2cc3c(N4CCN(C(=O)OC5COC5)CC4)ccnn3c2)cc1 (stereo not shown) > 8.00

# get_value(readout= pIC50, system= ALK2 R206H (GST-tagged mutant ALK2) (Homo sapiens, UniProt Q04771, R206H)) for CC(C)NC(=O)N1CCN(c2ccnn3cc(-c4ccc(C5CCCN5)cn4)cc23)CC1 (stereo not shown) > 8.00

# get_value(readout= pIC50, system= ALK2 R206H (GST-tagged mutant ALK2) (Homo sapiens, UniProt Q04771, R206H)) for CCOC1(c2ccc(-c3cc4c(N5CCN(C(=O)O[C@H](C)CF)CC5)ccnn4c3)nc2)CCN(C(C)C)CC1 > 8.00

# get_value(readout= pIC50, system= ALK2 R206H (GST-tagged mutant ALK2) (Homo sapiens, UniProt Q04771, R206H)) for CCOC1(c2ccc(-c3cc4c(N5CCN(C(=O)NC(C)C)CC5)ccnn4c3)nc2)CCN(C(C)CF)CC1 (stereo not shown) > 8.00

# get_value(readout= pIC50, system= ALK2 R206H (GST-tagged mutant ALK2) (Homo sapiens, UniProt Q04771, R206H)) for CC(C)N1CCC(c2ccc(-c3cc4c(N5CCN(C(=O)OC6COC6)[C@H](C)C5)ccnn4c3)cc2)CC1 > 8.00

# get_value(readout= pIC50, system= ALK2 R206H (GST-tagged mutant ALK2) (Homo sapiens, UniProt Q04771, R206H)) for CC(C)N1CCC(c2ccc(-c3cc4c(N5CCN(C(=O)C6(C7CC7)CC6)CC5)ccnn4c3)cc2)CC1 7.30 to 8.00

Continuing:
# get_value(readout= pIC50, system= ALK2 R206H (GST-tagged mutant ALK2) (Homo sapiens, UniProt Q04771, R206H)) for O=C(C1CC1)N1CCN(c2ccnn3cc(-c4nc5c(s4)CCNC5)cc23)CC1 7.30 to 8.00

* * *

Molecular target: human ALK2 R206H (Homo sapiens, UniProt Q04771, R206H)
Construct: expressed in transfected cells; host or cells: HEK293 (ATCC CRL1573), lentivirus transduction, blasticidin selection
Test: Cell-based ALK2-R206H cell activity assay (Smad1-Ser463/Ser465 phosphorylation by AlphaLISA in HEK293-ALK2-R206H cells)
Conditions: read-out: Cell Line (Cell Assay IC50)
pIC50: −log10 of the molar value.
experimental_endpoint: pIC50

Reference set, count: 3
Using the record for CCN1CCC(c2ccc(-c3cc4c(N5CCN(C(=O)[C@H]6C[C@H](O)C6)[C@H](C)C5)ccnn4c3)cc2)CC1 , report its pIC50. > 7.00

Using the record for O=C(C1CC1)N1CCN(c2ccnn3cc(-c4ccc(N5CCNC(C(F)(F)F)C5)cc4)cc23)CC1 (stereo not drawn) , report its pIC50. < 6.30

Using the record for CCNC(=O)N1CCN(c2ccnn3cc(-c4ccc(N5CCN(C(C)C)CC5)cc4)cc23)CC1 , report its pIC50. > 7.00

Continue with the next compound.
Using the record for O=C(C1CC1)N1CCN(c2ccnn3cc(-c4ccc(N5CCNCC5)cc4OC(F)F)cc23)CC1 , report its pIC50. 6.30 to 7.00

* * *

Target: human ALK2 R206H (Homo sapiens, UniProt Q04771, R206H)
Construct: expressed in transfected cells; host or cells: HEK293 (ATCC CRL1573), lentivirus transduction, blasticidin selection
Test: Cell-based ALK2-R206H cell activity assay (Smad1-Ser463/Ser465 phosphorylation by AlphaLISA in HEK293-ALK2-R206H cells)
Settings: read-out: Cell Line (Cell Assay IC50)
experimental_endpoint: IC50

Reference set, count: 5
Using the record for O=C(C1CC1)N1CCN(c2ccnn3cc(-c4ccc(N5CCN6CCCCC6C5)cc4)cc23)CC1 (stereo not shown) [Compound 307] , report its IC50. 100 to 500 nM

Using the record for CC(C)N1CCC(c2ccc(-c3cc4c(N5CCN(C(=O)[C@H]6CC[C@H](O)CC6)CC5)ccnn4c3)nc2)CC1 [Compound 432] , report its IC50. < 100 nM

Using the record for CC(C)N1CCC(c2ccc(-c3cc4c(N5CCN(C(=O)C6CC6)CC5)ccnn4c3)nc2)CC1 [Compound 266] , report its IC50. < 100 nM

Using the record for O=C(C1CC1)N1CCN(c2ccnn3cc(-c4ccc(OCC5CNC5)cc4)cc23)CC1 [Compound 134] , report its IC50. 100 to 500 nM

Using the record for CCOC1(c2ccc(-c3cc4c(N5CCN(C(=O)OC6COC6)CC5)ccnn4c3)nc2)CCNCC1 [Compound 647] , report its IC50. < 100 nM

Continuing:
Using the record for CCNC(=O)N1CCN(c2ccnn3cc(-c4ccc([C@@H]5CCN(C(C)C)C5)cn4)cc23)CC1 [Compound 495] , report its IC50. < 100 nM

Using the record for O=C(C1CC1)N1CCN(c2ccnn3cc(-c4cnn(C5CCCNC5)c4)cc23)CC1 (stereo not shown) [Compound 116] , report its IC50. < 100 nM
